All figures here come from ChEMBL document CHEMBL5053555.

PROTOCOL NOTES: in vivo
SETUP CONDITIONS: Swiss albino, mouse, ip, 50 mg/kg
RESULT TYPE: Cmax at 2 h (µM)
# unit: µM | format: bare number

Prompt: GET /values?readout=Cmax at 2 h&item= `Cc1ncsc1-c1ccc([C@H](C)NC(=O)[C@@H]2C[C@@H](O)CN2C(=O)[C@@H](NC(=O)CCCCCCCCCCC(=O)NCCNC[C@@H](C(=O)N2CCN(c3ncnc4c3[C@H](C)C[C@H]4O)CC2)c2ccc(Cl)cc2)C(C)(C)C)cc1`
Response: 3.5

###

PROTOCOL NOTES: in vivo
SETUP CONDITIONS: Swiss albino, mouse, ip, 50 mg/kg
RESULT TYPE: Cmax at 8 h (nM)
# unit: nM | format: bare number

Prompt: GET /values?readout=Cmax at 8 h&item= `Cc1ncsc1-c1ccc([C@H](C)NC(=O)[C@@H]2C[C@@H](O)CN2C(=O)[C@@H](NC(=O)CCCCCCCCCCC(=O)NCCNC[C@@H](C(=O)N2CCN(c3ncnc4c3[C@H](C)C[C@H]4O)CC2)c2ccc(Cl)cc2)C(C)(C)C)cc1`
Response: 3000

###

SYSTEM: von Hippel-Lindau disease tumor suppressor/AKT (Homo sapiens) (UniProt P31751+Q9Y243+P31749+P40337)
PROTOCOL NOTES: Protac activity at VHL/AKT in human PC-3 cells assessed as reduction in phosphorylated AKT level at 1 uM after 24 hrs by Western blot analysis
Assay type: cell-based
Activity calls are given as the source filed them. No cut-off for these calls is given here.
Your reply should match one of these outcome classes. 1 (yes) = active, 0 (no) = inactive

Prompt: What is the recorded call for this compound in the test? `CCn1c(-c2nonc2N)nc2c(C#CC(C)(C)O)ncc(OCCCNCCCC(=O)NCCCCCCCCCCC(=O)N[C@H](C(=O)N3C[C@H](O)C[C@H]3C(=O)NCc3ccc(-c4scnc4C)cc3)C(C)(C)C)c21`
Response: 1 (yes)

###

SYSTEM: von Hippel-Lindau disease tumor suppressor/AKT (Homo sapiens) (UniProt P31751+Q9Y243+P31749+P40337)
PROTOCOL NOTES: Protac activity at VHL/AKT in human PC-3 cells assessed as reduction in total AKT level at 1 uM after 24 hrs by Western blot analysis
Assay type: cell-based
Active and inactive are the calls of the source. The calls are words filed in the database; no cut-off is given here.
RESULT TYPE: Activity

CCn1c(-c2nonc2N)nc2c(C#CC(C)(C)O)ncc(OCCCNCCCC(=O)NCCOCCOCCOCC(=O)N[C@H](C(=O)N3C[C@H](O)C[C@H]3C(=O)NCc3ccc(-c4scnc4C)cc3)C(C)(C)C)c21 = inactive
CCn1c(-c2nonc2N)nc2c(C#CC(C)(C)O)ncc(OCCCNCCCC(=O)NCCOCCOCCOCCOCCOCCC(=O)N[C@H](C(=O)N3C[C@H](O)C[C@H]3C(=O)NCc3ccc(-c4scnc4C)cc3)C(C)(C)C)c21 = inactive
CCn1c(-c2nonc2N)nc2c(C#CC(C)(C)O)ncc(OCCCNCCCC(=O)NCCOCCC(=O)N[C@H](C(=O)N3C[C@H](O)C[C@H]3C(=O)NCc3ccc(-c4scnc4C)cc3)C(C)(C)C)c21 = inactive
